Experiment: Dissociation constant, pKa of the compound
Assay type: physicochemical
Some compounds, each annotated with its measured pKa.
The reply should be a number, written without any unit.

- ENTRY_SMILES: "CCOC(=O)c1c(C)n(Cc2ccccc2)c2ccc(OCCCCNCc3ccc(Oc4nnnn4-c4ccccc4)c(OC)c3)cc12"
  pKa: 8.2

Let me know recorded pKa for CCOC(=O)c1c(C)n(Cc2ccccc2)c2ccc(OCCCNCc3ccc(Oc4nnnn4-c4ccccc4)c(OC)c3)cc12 , thanks.
7.21

---

fractional inhibitory concentration index (FICI) by entry:
Biological target: Quinolone resistance protein NorA (Staphylococcus aureus)
Assay: Inhibition of Staphylococcus aureus 1199B NorA assessed as potentiation of ciprofloxacin-induced antibacterial activity by checkerboard assay
Lab note: write the figure by itself, no unit.

// below: answered compounds
- COMPOUND: "CCOC(=O)c1c(C)n(Cc2ccccc2)c2ccc(OCCCN3CCCCC3)cc12"
  TESTED_ON: "Quinolone resistance protein NorA (Staphylococcus aureus)"
  VALUE_MEASURED: 0.28
- COMPOUND: "CCOC(=O)c1c(C)n(Cc2ccccc2)c2ccc(OCC(O)CNCc3ccc(Oc4nnnn4-c4ccccc4)c(OC)c3)cc12 (centres undefined)"
  TESTED_ON: "Quinolone resistance protein NorA (Staphylococcus aureus)"
  VALUE_MEASURED: 0.13
- COMPOUND: "CCOC(=O)c1c(C)n(Cc2ccccc2)c2ccc(OCCCCNCc3ccc(Oc4nnnn4-c4ccccc4)c(OC)c3)cc12"
  TESTED_ON: "Quinolone resistance protein NorA (Staphylococcus aureus)"
  VALUE_MEASURED: 0.25

Now turn to the next compound.
Retrieve fractional inhibitory concentration index (FICI) measured for CCOC(=O)c1c(C)n(Cc2ccccc2)c2ccc(OCCCNCc3ccc(Oc4nnnn4-c4ccccc4)c(OC)c3)cc12 and print it.
0.27

---

solubility listing for selected compounds.
Assay: Solubility in D2O solution at 25 degC by 1H NMR analysis
Assay type: physicochemical

- ENTRY_SMILES: "CCOC(=O)c1c(C)n(Cc2ccccc2)c2ccc(OCCCNCc3ccc(Oc4nnnn4-c4ccccc4)c(OC)c3)cc12"
  VALUE_MEASURED: "< 2 µM"

Look up solubility of CCOC(=O)c1c(C)n(Cc2ccccc2)c2ccc(OCCCCNCc3ccc(Oc4nnnn4-c4ccccc4)c(OC)c3)cc12 and report it.
< 2 µM

---

Measured pIC50, listed per entry for reference.
Target: Quinolone resistance protein NorA (Staphylococcus aureus)
Assay: Inhibition of Staphylococcus aureus 1199B NorA assessed as inhibition of ethidium bromide efflux measured after 5 mins by fluorometric method
pIC50 here: minus log base 10 of the concentration, concentration in moles per litre.

- COMPOUND: "CCOC(=O)c1c(C)n(Cc2ccccc2)c2ccc(OCCCNCc3ccc(F)c(OC)c3)cc12"
  VALUE_MEASURED: 5.42
- COMPOUND: "CCOC(=O)c1c(C)n(Cc2ccccc2)c2ccc(OCC(O)CNCc3ccc(Oc4nnnn4-c4ccccc4)c(OC)c3)cc12 (stereo not given)"
  VALUE_MEASURED: 5.31
- COMPOUND: "CCOC(=O)c1c(C)n(Cc2ccccc2)c2ccc(OCCCCNCc3ccc(Oc4nnnn4-c4ccccc4)c(OC)c3)cc12"
  VALUE_MEASURED: 5.69
- COMPOUND: "CCOC(=O)c1c(C)n(Cc2ccccc2)c2ccc(OCC(O)CNCC(O)COc3ccc4c(c3)c(C(=O)OCC)c(C)n4Cc3ccccc3)cc12 (stereo not given)"
  VALUE_MEASURED: 4.70

Now examine the next entry.
Fill: pIC50 (Quinolone resistance protein NorA (Staphylococcus aureus)) for this compound CCOC(=O)c1c(C)n(Cc2ccccc2)c2ccc(OCCCNCc3ccc(Oc4nnnn4-c4ccccc4)c(OC)c3)cc12
5.74

---

Target: Quinolone resistance protein NorA (Staphylococcus aureus)
Sequence (whole entry): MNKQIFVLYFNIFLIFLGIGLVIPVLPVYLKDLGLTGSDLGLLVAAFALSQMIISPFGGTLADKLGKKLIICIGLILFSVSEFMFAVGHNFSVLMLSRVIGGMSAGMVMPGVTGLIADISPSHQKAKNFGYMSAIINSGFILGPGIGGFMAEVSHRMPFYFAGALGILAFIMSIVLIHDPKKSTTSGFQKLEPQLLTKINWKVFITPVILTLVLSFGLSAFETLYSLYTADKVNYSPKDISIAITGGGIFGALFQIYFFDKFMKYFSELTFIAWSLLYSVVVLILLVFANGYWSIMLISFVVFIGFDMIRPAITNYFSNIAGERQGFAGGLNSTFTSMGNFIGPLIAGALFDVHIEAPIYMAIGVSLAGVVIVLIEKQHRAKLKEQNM
Experiment: Inhibition of Staphylococcus aureus 1199B NorA assessed as inhibition of ethidium bromide efflux at 50 uM measured after 5 mins by fluorometric method relative to control
MEASURED_PROPERTY: inhibition

Please review the entries below; each comes with its answer.
- MOLECULE: "CCOC(=O)c1c(C)n(Cc2ccccc2)c2ccc(OCCCNCc3ccc(Oc4nnnn4-c4ccccc4)c(OC)c3)cc12"
  TESTED_ON: "Quinolone resistance protein NorA (Staphylococcus aureus)"
  inhibition: "95 to 96.5%"
- MOLECULE: "CCOC(=O)c1c(C)n(Cc2ccccc2)c2ccc(OCCN3CCN(CCOc4ccccc4-c4ccccc4)CC3)cc12"
  TESTED_ON: "Quinolone resistance protein NorA (Staphylococcus aureus)"
  inhibition: "24.3 to 50%"

Please turn your attention to the following entry.
Give the reported value of inhibition for this record: CCOC(=O)c1c(C)n(Cc2ccccc2)c2ccc(OCC(O)CNCC(O)COc3ccc4c(c3)c(C(=O)OCC)c(C)n4Cc3ccccc3)cc12 (stereo not drawn)
78 to 100%
